# target_entity: human GGT (Homo sapiens, UniProt P19440)
# Construct: purchased Asahi Kasei Co., Ltd. HC-GTP (lot 603AA)
# Sequence (P19440 1-380 limits assumed): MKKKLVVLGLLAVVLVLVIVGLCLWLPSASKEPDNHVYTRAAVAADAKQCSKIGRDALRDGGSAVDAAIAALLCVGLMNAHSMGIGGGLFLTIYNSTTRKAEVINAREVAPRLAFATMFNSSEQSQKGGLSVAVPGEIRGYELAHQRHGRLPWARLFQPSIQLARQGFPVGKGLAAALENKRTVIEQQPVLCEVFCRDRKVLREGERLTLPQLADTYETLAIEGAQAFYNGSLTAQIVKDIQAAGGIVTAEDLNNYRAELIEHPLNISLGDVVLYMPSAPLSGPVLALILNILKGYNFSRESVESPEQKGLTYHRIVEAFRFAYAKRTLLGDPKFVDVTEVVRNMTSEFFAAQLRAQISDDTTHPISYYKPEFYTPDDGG
# Sequence (P19440 381-569 limits assumed): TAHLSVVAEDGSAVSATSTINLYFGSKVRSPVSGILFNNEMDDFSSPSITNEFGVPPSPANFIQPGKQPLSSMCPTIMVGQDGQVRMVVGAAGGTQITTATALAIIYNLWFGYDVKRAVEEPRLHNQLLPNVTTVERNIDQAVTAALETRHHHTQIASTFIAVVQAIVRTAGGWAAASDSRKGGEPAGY
# experiment_notes: Second-order rate constant kon of human GGT inactivation (continuous or discontinuous assay)
# Format: biochemical
# applied_conditions: second-order rate constant for enzyme inactivation; pH 5.5, 25° C.
Label scheme for kon Human GGT: 0 = under 0.4 M^−1S^−1, 1 = from 0.4 M^−1S^−1 up to 50 M^−1S^−1, 2 = 50 M^−1S^−1 and over

>>> print(df.to_string())
                                   compound  group_label
0  COP(=O)(CCC(N)C(=O)O)Oc1ccc(C(F)(F)F)cc1 (stereo not drawn)            1
1  COP(=O)(CCC(N)C(=O)O)Oc1ccc(C(=O)O)cc1 (stereo not drawn)            1
2  COP(=O)(CCC(N)C(=O)O)Oc1ccc2c(C)cc(=O)oc2c1 (stereo not drawn)            2
3  COP(=O)(CCC(N)C(=O)O)Oc1ccc(C)cc1 (stereo not drawn)            0
4  COP(=O)(CCC(N)C(=O)O)Oc1cccc(CCC(=O)O)c1 (stereo not drawn)            1
5  COP(=O)(CCC(N)C(=O)O)Oc1ccc(CC(=O)O)cc1 (stereo not drawn)            0
